What follows is a collection of IC50 values obtained with Fibroblast growth factor receptor 1 (Homo sapiens, UniProt P11362).
Sequence (P11362 whole entry): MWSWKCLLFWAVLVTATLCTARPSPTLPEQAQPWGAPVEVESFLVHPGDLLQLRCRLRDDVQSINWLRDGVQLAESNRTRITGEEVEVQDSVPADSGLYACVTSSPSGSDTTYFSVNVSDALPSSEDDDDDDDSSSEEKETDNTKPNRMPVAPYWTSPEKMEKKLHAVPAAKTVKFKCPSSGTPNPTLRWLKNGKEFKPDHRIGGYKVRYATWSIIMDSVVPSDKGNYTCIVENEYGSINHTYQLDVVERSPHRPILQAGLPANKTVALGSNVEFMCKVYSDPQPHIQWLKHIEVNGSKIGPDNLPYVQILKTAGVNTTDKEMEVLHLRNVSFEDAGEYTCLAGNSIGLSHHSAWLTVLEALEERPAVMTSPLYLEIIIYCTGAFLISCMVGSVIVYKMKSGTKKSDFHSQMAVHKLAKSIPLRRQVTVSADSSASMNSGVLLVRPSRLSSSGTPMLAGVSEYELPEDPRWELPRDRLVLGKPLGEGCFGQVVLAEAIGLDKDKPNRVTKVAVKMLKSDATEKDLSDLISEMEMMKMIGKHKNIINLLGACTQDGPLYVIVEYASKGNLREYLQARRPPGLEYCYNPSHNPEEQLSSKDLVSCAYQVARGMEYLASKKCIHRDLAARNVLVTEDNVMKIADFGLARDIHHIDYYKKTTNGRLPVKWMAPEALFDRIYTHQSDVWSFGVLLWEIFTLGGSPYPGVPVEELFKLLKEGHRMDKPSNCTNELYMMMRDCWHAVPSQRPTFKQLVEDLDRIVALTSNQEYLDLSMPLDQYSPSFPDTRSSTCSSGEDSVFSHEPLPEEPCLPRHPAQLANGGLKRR

Reference set (2 entries):
>  <input-smiles>
C=CC(=O)Nc1cc(N2CCN(C3COC3)CC2)cc(F)c1Nc1n[nH]c2ccc(O[C@H](C)c3c(Cl)cncc3Cl)cc12

>  <assayed-target>
Fibroblast growth factor receptor 1 (Homo sapiens, UniProt P11362)

>  <IC50>
> 10 µM

$$$$
>  <input-smiles>
C=CC(=O)Nc1cc(N2CCN(C)CC2)cc(F)c1Nc1n[nH]c2ccc(O[C@H](C)c3c(Cl)cncc3Cl)cc12

>  <assayed-target>
Fibroblast growth factor receptor 1 (Homo sapiens, UniProt P11362)

>  <IC50>
> 10 µM

$$$$

Attention now turns to another entry.
Measured IC50 for this entry C=CC(=O)Nc1cc(N2CCC(N3CCOCC3)CC2)ccc1Nc1n[nH]c2ccc(O[C@H](C)c3c(Cl)cncc3Cl)cc12 on Fibroblast growth factor receptor 1 (Homo sapiens, UniProt P11362): > 10 µM
